# Method Summary: ATG_E_Box_CIS: Attagene CIS-FACTORIAL HepG2 Assay for human Enhancer Box (E-box) (AID 2282936)
# Condition Set: HepG2 E-box cis-reporter transcription, actives raise or lower the signal
# Protocol: ATG_CIS is a cell-based, multiplexed-readout assay that uses HepG2, a human liver cell line, with measurements taken at 24 hours after chemical dosing in a 24-well plate.ATG_E_Box_CIS is one of 52 assay component(s) measured or calculated from the ATG_CIS assay. […] This assay endpoint, ATG_E_Box_CIS, was analyzed with bidirectional fitting relative to DMSO as the negative control and baseline of activity. […]
Calls of active or inactive are those of the source. The calls were made as follows: active = hit-call score of the fitted dose curve at least 0.9, where 1 is the maximum; inactive = score below 0.9.
Pick one: active, inactive

Molecule | Assigned Class
CCCCCCCCCCCCCCCCCC[N+](C)(C)C | active
CN(C)Cc1cc(C(C)(C)C)c(O)c(C(C)(C)C)c1 | inactive
O=[N+]([O-])c1ccc2nc[nH]c2c1 | inactive
CN(C)CCCN1c2ccccc2CCc2ccc(Cl)cc21 | inactive
CCc1cc(C(N)=S)ccn1 | inactive

Q: Per the records of this test, what outcome belongs to `CC/C=C\CC/C=C/C(OCC)OCC` ?
A: inactive

Q: Returns: the outcome recorded for `COc1cccc(OC)c1C(=O)O` in this assay.
A: inactive

Q: What is the recorded call for this molecule in the test? `NC(N)=Nc1nc(CSCCC(N)=NS(N)(=O)=O)cs1`
A: inactive

Q: Any idea what this test logged for `CC1=C(CC=O)C(C)(C)CCC1` ?
A: inactive

Q: Check the results log: what was the call for `C=C1CC[C@H]2C[C@@H]1C2(C)C` ?
A: inactive

Q: Field: outcome | Entry: COC(OC)C(C)c1ccccc1 (stereo not given)
A: inactive

Q: I would be grateful if you could indicate the recorded call for CCCCCC1CCCC(=O)O1 (stereo not given) .
A: inactive

Q: Record request — test call for c1cc(N(CC2CO2)CC2CO2)ccc1Cc1ccc(N(CC2CO2)CC2CO2)cc1 (stereo not given)
A: active

Q: Please state the recorded outcome for this molecule: COc1ccccc1OCC(O)CO (stereo not given)
A: inactive

Q: Would you mind telling me which call this test gave `Clc1ccccn1` ?
A: inactive

Q: Per the assay record, what outcome was assigned to `CO[Si](CCCNCCN)(OC)OC` ?
A: inactive

* * *

# Method Summary: TOX21_p53_BLA_p4_viability: Viability Assessment in the Tox21 HCT-116 p53 Agonism Beta-lactamase Assay, Phase 4 (AID 2283597);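 also: hits lower the luminescence signal meaning cytotoxicity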
Inconclusive results are not listed. Calls of active or inactive are those of the source. Rule for the calls: active = hit-call score of the fitted dose curve at least 0.9, where 1 is the maximum; inconclusive = response in the unintended direction; inactive = score below 0.9.
Reply using exactly one outcome from active, inactive

Before answering, review these 10 worked examples.
Compound | Assigned Class
CCCCCCCCCCCCCCCC(=O)OC[C@@H](COP(=O)([O-])OCC[N+](C)(C)C)OC(=O)CCCCCCCCCCCCCCC | inactive
C[C@@H]1O[C@@H]1P(=O)(O)O | inactive
O=C1c2ccccc2C(=O)N1CCl | inactive
Cc1cccc2c1cc1ccc3cccc4ccc2c1c34 | inactive
CCCCCCCCCOC(=O)c1ccccc1C(=O)OCCCCCCCCC | inactive
CC12CCC(C[N+](C)(CCC[N+](C)(C)C)C1)C2(C)C (stereo not drawn) | inactive
C=C(C)CC(C)(C)C | inactive
CC(C)(O)C(=O)O | inactive
CCC=CC#N | inactive
N[C@H](C(=O)O)[C@@H]1CC(Cl)=NO1 | active

Q: Tell me the recorded outcome of this test for `O=S(=O)(O)c1cc(I)c(O)c2ncccc12` .
A: inactive

Q: Hi, do you know how `COc1ccc(C(=O)c2ccccc2O)c(O)c1` came out in this test?
A: inactive

Q: Test call, this compound: CN(C)CCOC(c1ccc(Cl)cc1)c1ccccn1 (stereo not drawn)
A: inactive

* * *

# Method Summary: TOX21_p53_BLA_p4_viability: Viability Assessment in the Tox21 HCT-116 p53 Agonism Beta-lactamase Assay, Phase 4 (AID 2283597);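 also: hits lower the luminescence signal meaning cytotoxicity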
Records with an inconclusive call do not appear. Calls of active or inactive are those of the source. How the source made its calls: active means hit-call score of the fitted dose curve at least 0.9, where 1 is the maximum; inconclusive means response in the unintended direction; inactive means score below 0.9.
One label from this list, please: label 1 for active, label 0 for inactive

Reference set, count: 2
Compound | Assigned Class
CCCCN=C(N)N=C(N)N | label 0
COc1ccccc1N1CCN(CCCNc2cc(=O)n(C)c(=O)n2C)CC1 | label 0

Q: Hey, what did the test say about `NC(N)=NC(=O)Cc1c(Cl)cccc1Cl` ?
A: label 0

Q: Record request — test call for `CCC(C)(C)C(=O)O`
A: label 0

Q: // return assay outcome for `CCC(=C(CC)c1ccc(O)cc1)c1ccc(O)cc1`
A: label 0

Q: Hi, sorry to bother you, what did the test record for Cc1ccc(C(=O)C(C)CN2CCCCC2)cc1 (stereo not drawn) ?
A: label 0

Q: So what was the verdict on `Cc1c(N)cccc1Cl` in this test?
A: label 0

Q: In this assay, the call recorded for `CC(C)Cc1ccc(CC(=O)O)cc1` was what?
A: label 0

Q: Outcome logged for `NCCS` in this assay:
A: label 0

Q: I'd appreciate the recorded outcome for `Cc1cc(S(=O)(=O)O)c(N)cc1Cl` from this test.
A: label 0

Q: Tell me the assay call for `O=C(CCS)OCC(COC(=O)CCS)(COC(=O)CCS)COC(=O)CCS` please.
A: label 0

Q: GET /call?item= CC(C)CCCC(C)N (stereo not drawn) returns the recorded outcome of this test.
A: label 0

Q: Please let me know the test result on file for `N#Cc1ccc2c(c1)N(CCCN1CCC(O)CC1)c1ccccc1S2` .
A: label 0

Q: What is the recorded call for this compound in the test? `O=C(O)c1ccc(OCCn2ccnc2)cc1`
A: label 0

Q: Query: recorded result category for CC1CS(=O)(=O)CCN1N=Cc1ccc([N+](=O)[O-])o1 (stereo not drawn) in this test
A: label 0

Q: Recorded test call requested for `C[C@]12O[C@H](C[C@]1(O)CO)n1c3ccccc3c3c4c(c5c6ccccc6n2c5c31)CNC4=O`
A: label 1

Q: Short answer needed: outcome of this test for CCOC(=O)C(C)O (stereo not drawn) ?
A: label 0

Q: # lookup: test call for CCOC(=O)NNc1ccc(N(CC)CC(C)O)nn1 (stereo not drawn)
A: label 0

Q: Lab log entry: `Cc1cn([C@H]2C[C@H](O)[C@@H](CO)O2)c(=O)[nH]c1=O` — outcome as called in the assay?
A: label 0

Q: Recorded test outcome, item `CCOc1ccc(N=C(C)Nc2ccc(OCC)cc2)cc1`
A: label 0

* * *

# Method Summary: TOX21_p53_BLA_p4_viability: Viability Assessment in the Tox21 HCT-116 p53 Agonism Beta-lactamase Assay, Phase 4 (AID 2283597);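 also: hits lower the luminescence signal meaning cytotoxicity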
Results filed as inconclusive are left out. The source made the active and inactive calls. Rule for the calls: active = hit-call score of the fitted dose curve at least 0.9, where 1 is the maximum; inconclusive = response in the unintended direction; inactive = score below 0.9.
Outcome field: choose from 1 (active), -1 (inactive)

Molecule | Assigned Class
CCCCCCCCCI | -1
Nc1nc(/C(=C/CC(=O)O)C(=O)N[C@@H]2C(=O)N3C(C(=O)O)=CCS[C@H]23)cs1 | -1
CN(C(=O)c1c(O)c2ccccc2n(C)c1=O)c1ccccc1 | -1

Q: Please indicate how the test categorized `COc1ccc(C(=O)CC(=O)c2ccc(C(C)(C)C)cc2)cc1` .
A: -1

Q: Query: recorded result category for `Cc1ccccc1C(=O)N1CC/C(=N\OS(=O)(=O)O)c2ccc(Cl)cc21` in this test
A: -1

Q: Called result for CCOC(=O)C(C)C(C)=O (stereo not drawn)
A: -1

Q: Please let me know the test result on file for CN1CCCN=C1COC(=O)C(O)(c1ccccc1)C1CCCCC1 (stereo not drawn) .
A: -1

Q: Called result for `CCCCCCCCCC(=O)NO`
A: -1

Q: Check the results log: what was the call for `CCCCCCCCCCCCI` ?
A: -1

Q: Dear colleague, could you share the recorded outcome for `COC1=C(OC)C(=O)C(C/C=C(\C)CC/C=C(\C)CC/C=C(\C)CC/C=C(\C)CC/C=C(\C)CC/C=C(\C)CC/C=C(\C)CC/C=C(\C)CC/C=C(\C)CCC=C(C)C)=C(C)C1=O` when you have a moment?
A: -1

Q: Dear colleague, could you share the recorded outcome for `O=C1Cc2cc(CCN3CCN(c4nsc5ccccc45)CC3)c(Cl)cc2N1` when you have a moment?
A: -1

Q: Which outcome did this test record for the molecule CCC(C)(C)c1ccc(CC(C)CN2C[C@@H](C)O[C@@H](C)C2)cc1 (stereo partly drawn) ?
A: 1

Q: For `C[N+]1(C)CCC(=C(c2ccccc2)c2ccccc2)CC1` , what call appears in the results of this test?
A: -1

Q: Called result for `O=C1C(c2[nH]c3ccccc3c2O)=Nc2ccccc21`
A: -1

Q: State the result this test recorded for CC(N)C12CC3CC(CC(C3)C1)C2 (stereo not drawn) .
A: -1

* * *

# Read-out: Human Leukocyte Antigen - DR isotype (HLADR), HLA-DRA (gene 3122)
# Method Summary: BSK_CASM3C_HLADR: BioMAP Diversity Plus: CASM3C Assay for Human Leukocyte Antigen - DR isotype (HLADR) Biomarker Activity (AID 2283043);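 also: cell-surface HLA-DR protein level quantified by ELISA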
# Condition Set: primary human coronary artery smooth muscle cells; actives raise or lower the signal
Calls of active or inactive are those of the source. Rule for the calls: active = hit-call score of the fitted dose curve at least 0.9, where 1 is the maximum; inactive = score below 0.9.
Hi there, use one of these labels in your reply, thanks! T (active), F (inactive)

Below, 5 molecules whose answers are already recorded.
Molecule | Assigned Class
CC(C)CC(=O)CC(C)CC(C)C (stereo unspecified) | T
Cc1c(C(N)=O)cc([N+](=O)[O-])cc1[N+](=O)[O-] | F
COC(=O)/C=C\C(=O)OC | T
CC[N+](CC)(CC(=O)Nc1c(C)cccc1C)Cc1ccccc1 (tested in a mixture with another compound) | F
CCCCCCCCCC/C=C/C1CC(=O)OC1=O (stereo unspecified) | F

Proceed to the following item.
Q: Just curious, what result did `Cc1cccnc1` get here?
A: F
